Taken from paper PMC9889419.

Target: M1 (Homo sapiens, UniProt P11229)
Sequence (P11229 whole entry): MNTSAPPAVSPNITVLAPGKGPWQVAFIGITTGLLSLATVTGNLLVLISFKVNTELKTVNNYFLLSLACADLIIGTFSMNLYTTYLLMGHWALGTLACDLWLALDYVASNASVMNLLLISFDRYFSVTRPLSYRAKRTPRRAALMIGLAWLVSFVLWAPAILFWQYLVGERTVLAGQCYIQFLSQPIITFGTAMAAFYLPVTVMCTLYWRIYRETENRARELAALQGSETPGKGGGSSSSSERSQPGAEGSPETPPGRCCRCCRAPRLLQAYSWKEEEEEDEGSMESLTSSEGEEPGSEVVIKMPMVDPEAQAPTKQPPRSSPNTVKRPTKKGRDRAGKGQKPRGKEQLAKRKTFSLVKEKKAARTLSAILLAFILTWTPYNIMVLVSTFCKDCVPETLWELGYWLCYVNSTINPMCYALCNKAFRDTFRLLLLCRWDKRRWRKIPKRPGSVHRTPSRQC

{"MOLECULE": "CCC(CO)NCCOc1c(C)cccc1Cl (stereo not shown) [KM-408]", "EXPERIMENTAL TARGET": "M1 (Homo sapiens, UniProt P11229)", "UNIT STRING": "µM", "IC50": 64}

###

Test: Pharmacokinetics in plasma
Assay type: in vivo, rats
Settings: male, Wistar, rat, plasma; rats, iv 5 mg/kg

{"MOLECULE": "CCC(CO)NCCOc1c(C)cccc1Cl (stereo not shown)", "clearance (mL/min/kg)": 70}

###

System: organotypic hippocampal slice cultures
Test: Neuroprotection primary screen, excitotoxin NMDA
Type: cell-based
Settings: NMDA 10 µM; 10 and 100 µM compound

{"COMPOUND": "CC[C@H](CO)NCCOc1c(C)cccc1Cl [Compound 5]", "EXPERIMENTAL TARGET": "organotypic hippocampal slice cultures", "Test Result (neuroprotection)": "No Neuroprotection"}
{"COMPOUND": "CCC(CO)NCCOc1c(C)cccc1Cl (stereo not shown) [Compound 4]", "EXPERIMENTAL TARGET": "organotypic hippocampal slice cultures", "Test Result (neuroprotection)": "No Neuroprotection"}
